biological target: HIV Env of isolate CNE8 (clade AE) (HIV); experiment: cell-based or functional assay
PROPERTY NAME: IC80 (µg/ml) with constrains
Answer format reminder: number followed by unit.

BINDER | IC80 (µg/ml) with constrains
ePGDM13 (antibody, V domains shown) VH: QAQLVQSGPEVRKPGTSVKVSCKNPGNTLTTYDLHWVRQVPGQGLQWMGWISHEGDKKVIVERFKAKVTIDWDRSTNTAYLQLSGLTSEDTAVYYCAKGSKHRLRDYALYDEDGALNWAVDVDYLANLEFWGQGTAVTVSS VL: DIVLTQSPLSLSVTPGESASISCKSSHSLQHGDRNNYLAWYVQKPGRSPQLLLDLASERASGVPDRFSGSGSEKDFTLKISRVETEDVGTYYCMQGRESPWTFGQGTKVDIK | 0.022 µg/mL
ePGDM5 (antibody, V domains shown) VH: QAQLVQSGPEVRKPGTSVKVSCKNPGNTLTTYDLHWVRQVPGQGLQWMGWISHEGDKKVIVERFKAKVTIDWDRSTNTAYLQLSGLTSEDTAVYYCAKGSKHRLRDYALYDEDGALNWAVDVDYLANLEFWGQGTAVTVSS VL: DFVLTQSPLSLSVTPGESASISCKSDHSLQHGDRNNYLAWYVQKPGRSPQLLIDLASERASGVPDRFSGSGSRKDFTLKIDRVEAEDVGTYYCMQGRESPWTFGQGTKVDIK | 0.003 µg/mL
ePGDM9 (antibody, V domains shown) VH: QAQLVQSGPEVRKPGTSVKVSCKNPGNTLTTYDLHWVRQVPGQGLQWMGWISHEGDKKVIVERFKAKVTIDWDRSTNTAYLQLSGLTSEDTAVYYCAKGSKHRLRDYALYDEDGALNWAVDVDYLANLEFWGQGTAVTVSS VL: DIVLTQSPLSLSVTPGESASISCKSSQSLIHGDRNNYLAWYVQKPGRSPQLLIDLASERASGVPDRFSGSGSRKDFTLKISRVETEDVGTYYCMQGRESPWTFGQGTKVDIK | 0.002 µg/mL

q: Which IC80 (µg/ml) with constrains is reported for this binder? PGDM1400 (antibody, V domains shown) VH: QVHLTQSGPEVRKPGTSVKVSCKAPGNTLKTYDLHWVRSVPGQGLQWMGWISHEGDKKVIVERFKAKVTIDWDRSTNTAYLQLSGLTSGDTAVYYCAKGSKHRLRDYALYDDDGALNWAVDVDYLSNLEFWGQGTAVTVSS VL: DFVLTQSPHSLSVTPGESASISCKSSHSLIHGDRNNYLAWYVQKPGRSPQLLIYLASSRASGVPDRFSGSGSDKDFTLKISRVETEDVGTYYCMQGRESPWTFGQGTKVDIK
a: 0.003 µg/mL

Provenance of the data: patent US20230134571A1
